- experimental_system: Albumin (Homo sapiens, UniProt P02768)
- Sequence (P02768 whole entry): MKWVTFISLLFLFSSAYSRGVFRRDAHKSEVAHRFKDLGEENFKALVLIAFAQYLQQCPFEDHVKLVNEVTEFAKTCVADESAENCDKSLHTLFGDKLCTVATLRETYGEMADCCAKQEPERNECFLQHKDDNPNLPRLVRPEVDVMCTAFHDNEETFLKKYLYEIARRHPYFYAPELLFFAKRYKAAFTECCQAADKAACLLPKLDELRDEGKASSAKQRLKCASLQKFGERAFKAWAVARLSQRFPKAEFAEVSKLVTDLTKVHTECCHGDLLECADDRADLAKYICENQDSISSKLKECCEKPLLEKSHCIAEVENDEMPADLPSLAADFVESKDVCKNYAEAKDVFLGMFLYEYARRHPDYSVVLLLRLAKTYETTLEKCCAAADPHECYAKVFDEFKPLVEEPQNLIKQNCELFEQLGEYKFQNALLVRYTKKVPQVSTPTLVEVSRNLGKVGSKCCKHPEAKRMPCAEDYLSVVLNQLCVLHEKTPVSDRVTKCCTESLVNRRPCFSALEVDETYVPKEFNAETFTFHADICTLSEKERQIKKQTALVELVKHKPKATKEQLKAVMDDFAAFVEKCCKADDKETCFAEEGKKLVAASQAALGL
- protocol: Binding affinity to human serum albumin
- conditions: isolated protein
assay_metric: logKA

Completed entries (count: 3):
>>> test_value("O=C(O)Cc1c[nH]c2cc(Cl)c(Cl)cc12")
1.436
>>> test_value("O=C(O)Cc1c[nH]c2cccc(F)c12")
0.305
>>> test_value("O=C(O)Cc1c[nH]c2ccccc12 [INDOLE-3-ACETIC ACID]")
0.102

a: O=C(O)Cc1c[nH]c2cc(F)ccc12
b: O=C(O)Cc1c[nH]c2c(Cl)ccc(Cl)c12
*Q* Hi! Which is lower in terms of logKA, the first one a or the second one b ? Answer format: the label of the selected item.
*A* a

P: CCc1[nH]c2ccccc2c1CC(=O)O
Q: Cc1cccc2[nH]cc(CC(=O)O)c12
R: CCc1ccc2c(CC(=O)O)c[nH]c2c1
S: O=C(O)Cc1c[nH]c2ncccc12
T: O=C(O)Cc1c[nH]c2cccc(Cl)c12
*Q* Rank items: key logKA, increasing. Answer by listing the labels in the requested order.
*A* S, P, Q, T, R

I: COc1ccc2[nH]cc(CC(=O)O)c2c1
II: CCCCc1ccc2[nH]cc(CC(=O)O)c2c1
*Q* Hi! Which is lower in terms of logKA, the first one I or the second one II ? Answer format: the label of the selected item.
*A* I
(I: 0.185, II: 1.05)
